readout_name: melting point

Solved cases below.
CC(C)C(OCc1ccccc1)[C@H]1[C@H]([N+](=O)[O-])[C@H](c2cccnc2)N[C@@H]1C(=O)NCCC(=O)O (some centres unmarked) [Compound 8] :: 98 to 100 °C
CC[C@H](C)C(OCc1ccccc1)[C@H]1[C@H]([N+](=O)[O-])[C@@H](c2cccs2)N[C@@H]1C(=O)NCCC(=O)O (some centres unmarked) [Compound 7] :: 79 to 80 °C
CC[C@H](C)C(OCc1ccccc1)[C@H]1[C@H]([N+](=O)[O-])[C@H](c2ccsc2)N[C@@H]1C(=O)NCCC(=O)O (some centres unmarked) [Compound 5] :: 145 to 146 °C
CC(C)C(OCc1ccccc1)[C@H]1[C@H]([N+](=O)[O-])[C@@H](c2ccco2)N[C@@H]1C(=O)NCCC(=O)O (some centres unmarked) [Compound 9] :: 70 to 72 °C
CC[C@H](C)C(OCc1ccccc1)[C@@H]1[C@H]([N+](=O)[O-])[C@H](c2ccccc2)N(C(=O)CN)[C@]1(C)C(=O)NCCCC(=O)O (some centres unmarked) [Compound 17] :: 132.7 to 133.6 °C
CC[C@H](C)C(OCc1ccccc1)[C@@H]1[C@H]([N+](=O)[O-])[C@H](c2ccccc2)N(C(=O)CN)[C@]1(C)C(=O)NCCC(=O)O (some centres unmarked) [Compound 16] :: 115.9 to 116.2 °C
CC[C@H](C)C(OCc1ccccc1F)[C@H]1[C@H]([N+](=O)[O-])[C@H](c2ccccc2)N[C@@H]1C(=O)NCCC(=O)O (some centres unmarked) [Compound 3] :: 136 to 138 °C
CC[C@H](C)C(OCc1ccccc1F)[C@H]1[C@H]([N+](=O)[O-])[C@@H](c2cccs2)N[C@@H]1C(=O)NCCC(=O)O (some centres unmarked) [Compound 6] :: 94 to 96 °C

Given CC[C@H](C)C(OCc1ccccc1)[C@@H]1[C@H]([N+](=O)[O-])[C@H](c2ccccc2)N[C@]1(C)C(=O)NCCC(=O)O (some centres unmarked) [HC0303] , state its recorded melting point. 104 to 105 °C

Looking for the measured melting point of CC[C@H](C)C(OCc1ccccc1)[C@H]1[C@H]([N+](=O)[O-])[C@H](c2ccccc2)N[C@@H]1C(=O)NCCC(=O)O (some centres unmarked) [Compound 1] , can you help? 140 to 141 °C

Reported melting point for CC[C@H](C)C(OCc1ccccc1F)[C@H]1[C@H]([N+](=O)[O-])[C@H](c2ccsc2)N[C@@H]1C(=O)NCCC(=O)O (some centres unmarked) [Compound 4] : what is it? 113 to 114 °C
